Test system: MST1
Construct: gene STK4
Setup Conditions: concentration: 1 μM, replicates: in singlicate; n = 1;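 note: KINOMEscan kinase panel screen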
Provide the reported %Inh of each item.
Numbers only, in %.

Lab note: each compound below needs its %Inh filled in.
1. FC(F)(F)c1ccc(-c2cc(-c3c[nH]nc3-c3ccccn3)ccn2)cc1
2. COc1ccc(-c2oc3ncnc(N)c3c2-c2ccc(OC)cc2)cc1

1: 17; 2: 7

Lab note: each compound below needs its %Inh filled in.
1. CCn1c(-c2ccncc2)nc2cnccc21
2. Nc1n[nH]c2nnc(-c3ccccc3)cc12
3. CCC(CC)(CC)n1cnc2c(N)ncnc21
4. O=C(NCCCN1CCCC1=O)c1cnc(NCc2cc(Cl)ccc2Cl)nc1NC1CCNCC1
5. FC(F)(F)c1cc(Nc2nccc(-c3c(-c4ccc(Cl)cc4)nn4ncccc34)n2)ccc1Cl
6. CNc1nccc(-c2c(-c3ccc(F)cc3)ncn2C2CCN(C)CC2)n1
7. C[C@@H]1CCN(C(=O)CO)C[C@@H]1N(C)c1ncnc2[nH]ccc12
8. COC(=O)c1c(-c2ccccc2)c2cc(Cl)ccc2c(=O)n1Cc1ccc(S(C)(=O)=O)cc1

[0, 0, 6, 8, 0, 0, 12, 1]

Lab note: each compound below needs its %Inh filled in.
1. CS(=O)(=O)CCNCc1nc(-c2ccc3ncnc(Nc4ccc(OCc5cccc(F)c5)c(Cl)c4)c3c2)cs1.Cl
2. O=C(Nc1ccccc1F)NC1CCN(c2ccnc(Nc3ccc(F)cc3)n2)C1 (stereo not shown)

[0, 0]

---

Tested on: CSNK1A1
Setup Conditions: concentration: 1 μM, replicates: in singlicate; n = 1
Provide the reported %Inh of each item.
Give bare numbers, in %.

Reference set (10 entries):
>>> recorded_number("Cc1ccc(NC(=O)c2cccc(C#N)c2)cc1-c1ccc(C(=O)Nc2ccncc2)cc1 [GSK1398463]")
0
>>> recorded_number("C[C@H]1CC[C@@H](C(=O)Nc2ccccc2)CN1c1cc(-c2ccc3c(N)n[nH]c3c2)nc(N)n1 [GSK2283293]")
0
>>> recorded_number("CN1CCC(n2cnc(-c3ccc(F)cc3)c2-c2ccnc(NC3CCNCC3)n2)CC1 [SB-229482]")
95.1
>>> recorded_number("Cl.Fc1ccccc1COc1ccc(Nc2ncnc3ccc(-c4nnc(C(F)(F)F)o4)cc23)cc1Cl [GW424170]")
0
>>> recorded_number("CC(C)(C)c1ccc(-n2cnc3c(N)ncnc32)cc1 [SKF-97263]")
40
>>> recorded_number("CCn1c(-c2ccncc2)nc2cnccc21 [SB-735216]")
22
>>> recorded_number("Oc1ccc2ncnc(Nc3ccc(OCc4ccccc4)cc3)c2c1 [GI262866]")
8
>>> recorded_number("Cl.Cn1ccc(-c2cccc(Nc3ccnc4cc(-c5nccs5)ccc34)c2)n1 [GW525701]")
0
>>> recorded_number("Clc1cc(Nc2ncnc3cc[nH]c23)ccc1OCc1ccccn1")
14
>>> recorded_number("N#Cc1ccc(Oc2ccc(Nc3ncnc4cc[nH]c34)cc2Cl)cc1")
2

Lab note: each compound below needs its %Inh filled in.
1. C[C@@H]1CCN(C(=O)CO)C[C@@H]1N(C)c1ncnc2[nH]ccc12
2. CS(=O)(=O)CCNCc1nc(-c2ccc3ncnc(Nc4ccc(OCc5cccc(F)c5)c(Cl)c4)c3c2)cs1.Cl [GW583340]
3. Clc1cccc(-c2nc(Nc3ccncc3)c3ccccc3n2)c1 [GW873004]
4. CC(=O)Nc1n[nH]c2ncc(-c3ccccc3)cc12 [SB-548492]
5. COc1ccc(Nc2nccc(N3CCC(NC(=O)c4cccc(NC(C)=O)c4)C3)n2)cc1 (stereo not drawn) [GSK1379732]
6. Cc1cc(N2CCC(NS(=O)(=O)c3ccc(F)cc3)CC2)nc(Nc2cccc(C#N)c2)n1.O=C(O)C(F)(F)F [GSK1653537]
7. CSc1ccc(NC2=C(c3ccccc3Cl)C(=O)NC2=O)cc1 [SB-342411]

33
0
29
0
0
25
0

Dear colleague, I am looking for the recorded %Inh of the following compound: FC(F)(F)c1ccc(-c2nn3ncccc3c2-c2ccnc(Nc3cccc(C(F)(F)F)c3)n2)cc1 [GW828205]
30

---

System: ACVR2B
Setup Conditions: concentration: 1 μM, replicates: in singlicate; n = 1
Quantity: %Inh (%)
Give bare numbers, in %.

>>> recorded_number("NC(=O)c1sc(-n2cnc3ccccc32)cc1OCc1ccccc1F [GSK1024306]")
2
>>> recorded_number("Fc1cccc(COc2ccc(Nc3ncnc4sc(-c5ccc[nH]5)cc34)cc2Cl)c1 [GW707818]")
16

Would you kindly look at the next entry?
Dear colleague, I am looking for the recorded %Inh of the following compound: COc1ccc(Nc2nccc(N3CCC(NC(=O)c4cccc(NC(C)=O)c4)C3)n2)cc1 (stereo not drawn) [GSK1379732]
0

---

Test system: WEE2
Setup Conditions: concentration: 1 μM, replicates: in singlicate; n = 1
Quantity: %Inh (%)
Answers are plain numbers, in %.

Reference set (3 entries):
>>> recorded_number("CS(=O)(=O)CCNCc1ccc(-c2ccc3ncnc(Nc4ccc(OCc5ccccc5)c(Cl)c4)c3c2)o1.Cl")
19
>>> recorded_number("COc1ccc(Nc2nccc(N3CCC(NC(=O)Nc4ccc5c(c4)OCO5)C3)n2)cc1 (stereo not shown)")
14
>>> recorded_number("COc1cc2ncnc(Nc3ccc(OCc4ccccc4Br)c(Cl)c3)c2cc1OC.Cl")
0

Dear colleague, I am looking for the recorded %Inh of the following molecule: `CNc1nccc(-c2c(-c3ccc(F)cc3)ncn2C2CCN(C)CC2)n1`
0

---

Test system: ERN1
Setup Conditions: concentration: 1 μM, replicates: in singlicate; n = 1
Quantity: %Inh (%)
Answers are plain numbers, in %.

Reference set (7 entries):
>>> recorded_number("Cl.c1ccc(Cn2ccc3cc(Nc4ncnc5ccccc45)ccc32)cc1")
0
>>> recorded_number("O=C(Nc1n[nH]c2nc(-c3ccco3)c(Br)cc12)c1ccc(CN2CCCC2)cc1.O=C(O)[C@H](O)[C@@H](O)C(=O)O")
0
>>> recorded_number("COC(=O)c1c(-c2ccccc2)c2cc(Cl)ccc2c(=O)n1Cc1ccc(S(C)(=O)=O)cc1")
13
>>> recorded_number("Cl.Fc1ccccc1COc1ccc(Nc2ncnc3ccc(-c4nnc(C(F)(F)F)o4)cc23)cc1Cl")
2
>>> recorded_number("FC(F)(F)c1ccc(-c2cc(-c3c[nH]nc3-c3ccccn3)ccn2)cc1")
0
>>> recorded_number("CS(=O)(=O)CCNCc1nc(-c2ccc3ncnc(Nc4ccc(OCc5cccc(F)c5)c(Cl)c4)c3c2)cs1.Cl")
10
>>> recorded_number("O=c1cc(N2CCOCC2)nc2n(Cc3cccc(Cl)c3)ccn12")
0

Would you kindly look at the next entry?
Dear colleague, I am looking for the recorded %Inh of the following compound: `COc1ccc(-c2oc3ncnc(N)c3c2-c2ccc(OC)cc2)cc1`
18

---

Provide the reported %Inh of each item.
System: WNK3
Setup Conditions: concentration: 1 μM, replicates: in singlicate; n = 1
Numbers only, in %.

>>> recorded_number("Oc1ccc2ncnc(Nc3ccc(OCc4ccccc4)cc3)c2c1")
0
>>> recorded_number("CSc1ccc(NC2=C(c3ccccc3Cl)C(=O)NC2=O)cc1")
17

Lab note: each molecule below needs its %Inh filled in.
1. COC(=O)c1cccc(NC(=O)NCCNc2ccnc(Nc3ccc(F)cc3)n2)c1
2. Nc1nc(-c2ccccn2)c(-c2ccnc3ccccc23)s1
3. Cl.c1ccc(Cn2ccc3cc(Nc4ncnc5ccccc45)ccc32)cc1
4. CC(C)N1CCC(n2cnc(-c3ccc(F)cc3)c2-c2ccnc(N)n2)CC1
5. O=C(Nc1ccccc1F)NC1CCN(c2ccnc(Nc3ccc(F)cc3)n2)C1 (stereo not drawn)

9
50
27
0
38

Lab note: each molecule below needs its %Inh filled in.
1. COc1ccc(-c2oc3ncnc(N)c3c2-c2ccc(OC)cc2)cc1
2. COc1ccc(NC(=O)Nc2ccc(C)c(-c3ccc(C(=O)Nc4ccncc4)cc3)c2)cc1

1: 52; 2: 2

---

System: MLCK
Construct: gene MYLK3
Setup Conditions: concentration: 1 μM, replicates: in singlicate; n = 1
Quantity: %Inh (%)
One number for each entry, in %.

Reference set (2 entries):
>>> recorded_number("COc1ccc(NC(=O)Nc2ccc(C)c(-c3ccc(C(=O)Nc4ccncc4)cc3)c2)cc1")
0
>>> recorded_number("FC(F)(F)c1ccc(-c2cc(-c3c[nH]nc3-c3ccccn3)ccn2)cc1")
7

Any idea what %Inh came out for `COc1ccc(-c2nc3n(c2-c2ccncc2)CCC3)cc1` on MLCK?
0

---

Provide the reported %Inh of each item.
System: BRSK1
Setup Conditions: concentration: 1 μM, replicates: in singlicate; n = 1
Numbers only, in %.

>>> recorded_number("CC(C)N1CCC(n2cnc(-c3ccc(F)cc3)c2-c2ccnc(N)n2)CC1 [SB-223132]")
0
>>> recorded_number("Cl.Fc1ccccc1COc1ccc(Nc2ncnc3ccc(-c4nnc(C(F)(F)F)o4)cc23)cc1Cl [GW424170]")
0
>>> recorded_number("COc1ccc(NC(=O)c2ccc(-c3cc(-c4nnc(C)o4)ccc3C)cc2)cc1 [GW595885]")
0
>>> recorded_number("O=c1cc(N2CCOCC2)nc2n(Cc3cccc(Cl)c3)ccn12 [GSK2296823]")
25
>>> recorded_number("N#Cc1ccc(Oc2ccc(Nc3ncnc4cc[nH]c34)cc2Cl)cc1")
3
>>> recorded_number("CCn1c(-c2ccncc2)nc2cnccc21 [SB-735216]")
0
>>> recorded_number("C[C@H]1CC[C@@H](C(=O)Nc2ccccc2)CN1c1cc(-c2ccc3c(N)n[nH]c3c2)nc(N)n1 [GSK2283293]")
0
>>> recorded_number("COC(=O)c1c(-c2ccccc2)c2cc(Cl)ccc2c(=O)n1Cc1ccc(S(C)(=O)=O)cc1")
0

Dear colleague, I am looking for the recorded %Inh of the following compound: Nc1nccc2scc(-c3ccc4c(c3)CCN4C(=O)Cc3cc(F)ccc3F)c12 [GSK2587663]
4
